Test system: Plasmodium falciparum W2 strain
ASSAY COMMENT: In vitro antimalarial activity, SYBR Green I fluorescence-based method, PfW2
Type: cell-based
CONDITION INFO: ratio of IC50s of the enantiomer pair; eutomer configuration in parentheses

COMPOUND SMILES	Eudysmic Ratio PfW2
CCCCNC[C@H](O)c1ccc(-c2ccc(C(F)(F)F)cc2)nc1C(F)(F)F	4.0 (S)
CCCCNC[C@H](O)c1cc(-c2ccc(C(F)(F)F)cc2)nc(C(F)(F)F)c1	1.1 (S)
CCCCNC[C@H](O)c1cc(C(F)(F)F)nc2c(C(F)(F)F)cccc12	1.46 (S)
CCCCNC[C@@H](O)c1cc(C(F)(F)F)nc2c(C(F)(F)F)cccc12	1.46 (S)
CCCCNC[C@@H](O)c1cc(-c2ccc(C(F)(F)F)cc2)nc(C(F)(F)F)c1	1.1 (S)

----------
Below, each entry is listed with its recorded Inhibition (%) of β-hematin formation at 2 mM.
System: β-hematin formation
ASSAY COMMENT: Inhibition of β-hematin formation
Format: biochemical
CONDITION INFO: 2 mM, 24 h at 37 °C, versus negative control; mean ± SD of three experiments
PROPERTY MEASURED: Inhibition (%) of β-hematin formation at 2 mM (ND ^c %)

COMPOUND	DATA VALUE
OC(c1cc(-c2ccc(C(F)(F)F)cc2)nc(C(F)(F)F)c1)C1CCCCN1 (stereo not drawn) [Enpiroline, enpiroline, reference compound]	20.3
CCCCNC[C@@H](O)c1ccc(-c2ccc(C(F)(F)F)cc2)nc1C(F)(F)F	48.3
